# targetOrSystem: human Endothelial Differentiation Gene 1 (EDG1), S1P1 receptor (Homo sapiens, UniProt P21453)
# Construct: TEV protease site; Gal4-VP16 transcription factor; expressed in transfected cells; host or cells: EDG1-bla/U2OS (Tango GPCR-bla U2OS parental cell line)
# Sequence (P21453 whole entry, the tested form may be a part): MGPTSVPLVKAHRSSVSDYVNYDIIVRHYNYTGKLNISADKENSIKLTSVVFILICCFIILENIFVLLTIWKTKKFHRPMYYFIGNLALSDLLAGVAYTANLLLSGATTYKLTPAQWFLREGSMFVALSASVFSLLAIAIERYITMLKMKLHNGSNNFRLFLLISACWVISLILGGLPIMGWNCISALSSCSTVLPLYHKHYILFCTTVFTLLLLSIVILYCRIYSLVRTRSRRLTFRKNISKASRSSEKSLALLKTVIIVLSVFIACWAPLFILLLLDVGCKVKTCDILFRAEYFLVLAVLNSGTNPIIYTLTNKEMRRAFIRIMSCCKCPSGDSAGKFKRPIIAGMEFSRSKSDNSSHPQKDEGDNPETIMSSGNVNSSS
# procedureSummary: S1P1 Assay (Tango EDG1-bla/U2OS beta-lactamase reporter, agonist dose response)
# Assay type: cell-based
# appliedConditions: EDG1-bla/U2OS cells, blue/green emission ratio, 10 point dose response, free base or salt form; read-out: pEC50 (S1P1 assay) (converted)
Structures can show the parent of a compound that is named as a salt.
attributeMeasured: EC50

[[record]]
compound = "CCc1c(CN2CCC(C(=O)O)C2)cccc1-c1nnc(-c2ccc(OC(C)C)c(Cl)c2)s1 (stereo not shown) [Example 44, trifluoroacetate]"
testvalue = "≤ 10 nM"

[[record]]
compound = "COc1c(CCN2CC(C(=O)O)C2)cc(F)cc1-c1nnc(-c2ccc(CC(C)C)c(C#N)c2)s1"
testvalue = "≤ 10 nM"

[[record]]
compound = "CCc1c(CN2CCC(C(=O)O)C2)cccc1-c1nnc(-c2ccc(CC(C)C)c(C#N)c2)s1 (stereo not shown)"
testvalue = "< 1 nM"

[[record]]
compound = "CCc1c(CN2CC(C(=O)O)C2)cccc1-c1cnc(-c2ccc(OC(C)C)c(Cl)c2)s1 [Example 39, trifluoroacetate]"
testvalue = "< 1 nM"


###

EC50 reference
# targetOrSystem: human Endothelial Differentiation G-protein Coupled Receptor 3 (EDG3), S1P3 receptor (Homo sapiens, UniProt Q99500)
# Construct: expressed in transfected cells; host or cells: GeneBLAzer EDG3-Ga15-NFAT-bla HEK 293T
# Sequence (Q99500 whole entry): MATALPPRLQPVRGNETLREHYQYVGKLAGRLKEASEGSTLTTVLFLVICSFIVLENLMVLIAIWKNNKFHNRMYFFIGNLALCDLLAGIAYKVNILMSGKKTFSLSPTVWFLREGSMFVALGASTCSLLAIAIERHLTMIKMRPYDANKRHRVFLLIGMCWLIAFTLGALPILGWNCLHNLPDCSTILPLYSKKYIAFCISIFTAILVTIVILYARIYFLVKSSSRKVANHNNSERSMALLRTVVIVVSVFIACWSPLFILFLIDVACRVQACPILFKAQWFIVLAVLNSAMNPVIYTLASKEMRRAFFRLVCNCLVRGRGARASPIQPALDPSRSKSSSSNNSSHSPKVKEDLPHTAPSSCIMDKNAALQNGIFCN
# procedureSummary: S1P3 Assay (GeneBLAzer EDG3-Ga15-NFAT-bla HEK 293T beta-lactamase reporter, agonist dose response)
# Type: cell-based
# appliedConditions: EDG3-Ga15-NFAT-bla HEK 293T cells, blue/green emission ratio, 10 point dose response, free base or salt form; read-out: pEC50 (S1P3 assay) (converted)
Counter-ions that a name gives are not always drawn.
attributeMeasured: EC50

[[record]]
compound = "CCc1c(CCN2CCC[C@H](C(=O)O)C2)cccc1-c1nnc(-c2ccc(CC(C)C)c(C#N)c2)s1"
testvalue = "> 3.16 µM"

[[record]]
compound = "CCc1c(CCN2CC[C@H](C(=O)O)C2)cccc1-c1nsc(-c2ccc(CC(C)C)c(C#N)c2)n1"
testvalue = "> 3.16 µM"

[[record]]
compound = "CCc1c(CN2CCC(C(=O)O)CC2)cccc1-c1cnc(-c2ccc(CC(C)C)c(C#N)c2)s1 [Example 42, trifluoroacetate]"
testvalue = "> 10 µM"

[[record]]
compound = "CCc1c(CCN2C[C@H](O)C[C@H]2C(=O)O)cccc1-c1cnc(-c2ccc(OC(C)C)c(C#N)c2)s1"
testvalue = "> 10 µM"

[[record]]
compound = "CCc1c(CCN2CCC[C@H]2C(=O)O)cccc1-c1nsc(-c2ccc(CC(C)C)c(C#N)c2)n1 [Example 76, trifluoroacetate]"
testvalue = "> 3.16 µM"


###

# targetOrSystem: human Endothelial Differentiation Gene 1 (EDG1), S1P1 receptor (Homo sapiens)
# Construct: TEV protease site; Gal4-VP16 transcription factor; expressed in transfected cells; host or cells: EDG1-bla/U2OS (Tango GPCR-bla U2OS parental cell line)
# procedureSummary: S1P1 Assay (Tango EDG1-bla/U2OS beta-lactamase reporter, agonist dose response)
# Type: cell-based
# appliedConditions: EDG1-bla/U2OS cells, blue/green emission ratio, 10 point dose response, free base or salt form; read-out: pEC50 (S1P1 assay) (converted)
Counter-ions that a name gives are not always drawn.
attributeMeasured: EC50

[[record]]
molecule = "Cc1c(CCN2CCC(C(=O)O)CC2)cccc1-c1nsc(-c2ccc(OC(C)C)c(Cl)c2)n1 [Example 74]"
testvalue = "< 1 nM"

[[record]]
molecule = "CCc1c(CCN2CC(C(=O)O)C2)cccc1-c1nsc(-c2ccc(OC(C)C)c(C(F)(F)F)c2)n1 [Example 22]"
testvalue = "< 1 nM"

[[record]]
molecule = "CCc1c(CCN2CCC(C(=O)O)C2)cccc1-c1cnc(-c2ccc(OC(C)C)c(C#N)c2)s1 (stereo not shown) [Example 90]"
testvalue = "< 1 nM"

[[record]]
molecule = "CCc1c(CN2CC(C(=O)O)C2)cccc1-c1cnc(-c2ccc(CC(C)C)c(C#N)c2)s1 [Example 43, trifluoroacetate]"
testvalue = "< 1 nM"

[[record]]
molecule = "CCc1c(CCN2CCC(C(=O)O)C2)cccc1-c1nnc(-c2ccc(CC(C)C)c(C#N)c2)s1 (stereo not shown) [Example 61]"
testvalue = "< 1 nM"

[[record]]
molecule = "CCc1c(CN2CC(C(=O)O)C2)cccc1-c1nnc(-c2ccc(CC(C)C)c(C#N)c2)s1 [Example 9, trifluoroacetate]"
testvalue = "< 1 nM"

[[record]]
molecule = "CCc1c(CCN2CC(C(=O)O)C2)cccc1-c1cnc(-c2ccc(OC(C)C)c(Cl)c2)s1 [Example 41, trifluoroacetate]"
testvalue = "< 1 nM"

[[record]]
molecule = "COc1c(CCN2CC(C(=O)O)C2)cc(F)cc1-c1cnc(-c2ccc(OC(C)C)c(Cl)c2)s1 [Example 33, trifluoroacetate]"
testvalue = "< 1 nM"

[[record]]
molecule = "CCc1c(CN2CC(C(=O)O)C2)cccc1-c1cnc(-c2ccc(OC(C)C)c(C(F)(F)F)c2)s1 [Example 31]"
testvalue = "< 1 nM"

[[record]]
molecule = "CCc1c(CCN2CCC(C(=O)O)CC2)cccc1-c1nsc(-c2ccc(OC(C)C)c(Cl)c2)n1 [Example 24, trifluoroacetate]"
testvalue = "< 1 nM"

[[record]]
molecule = "CCc1c(CCN2CC(C(=O)O)C2)cccc1-c1nnc(-c2ccc(CC(C)C)c(C#N)c2)s1 [Example 10]"
testvalue = "< 1 nM"

[[record]]
molecule = "Cc1c(CCN2CCC(C(=O)O)CC2)cccc1-c1nnc(-c2ccc(OC(C)C)c(Cl)c2)s1 [Example 58]"
testvalue = "≤ 10 nM"

[[record]]
molecule = "CCc1c(-c2nsc(-c3ccc(OC(C)C)c(Cl)c3)n2)cccc1C1CCN(CC(=O)O)CC1 [Example 99, trifluoroacetate]"
testvalue = "≤ 10 nM"

[[record]]
molecule = "CCc1c(CN2CCC(C(=O)O)CC2)cccc1-c1cnc(-c2ccc(OC(C)C)c(C#N)c2)s1 [Example 35, trifluoroacetate]"
testvalue = "≤ 10 nM"

[[record]]
molecule = "CCc1c(CCN2CC(C(=O)O)C2)cccc1-c1nsc(-c2ccc(OC(C)C)c(Cl)c2)n1 [Example 23, trifluoroacetate]"
testvalue = "< 1 nM"

[[record]]
molecule = "CCc1c(-c2nsc(-c3ccc(CC(C)C)c(C#N)c3)n2)cccc1C1CN(CCCC(=O)O)C1 [Example 104, trifluoroacetate]"
testvalue = "≤ 10 nM"

[[record]]
molecule = "CCc1c(CN2CC(C(=O)O)C2)cccc1-c1nsc(-c2ccc(OC(C)C)c(Cl)c2)n1 [Example 25, trifluoroacetate]"
testvalue = "≤ 10 nM"

[[record]]
molecule = "CCc1c(CCN2C[C@H](O)C[C@H]2C(=O)O)cccc1-c1nnc(-c2ccc(OC(C)C)c(Cl)c2)s1 [Example 55]"
testvalue = "≤ 10 nM"

[[record]]
molecule = "CCc1c(CN2CCC(CC(=O)O)CC2)cccc1-c1cnc(-c2ccc(OC(C)C)c(C#N)c2)s1 [Example 87]"
testvalue = "< 100 nM"

[[record]]
molecule = "CCc1c(CCN2CCC[C@H]2C(=O)O)cccc1-c1nsc(-c2ccc(CC(C)C)c(C#N)c2)n1 [Example 76, trifluoroacetate]"
testvalue = "≤ 10 nM"

[[record]]
molecule = "CCc1c(CCN2CCC(C(=O)O)C2)cccc1-c1nnc(-c2ccc(OC(C)C)c(Cl)c2)s1 (stereo not shown) [Example 12, trifluoroacetate]"
testvalue = "< 1 nM"

[[record]]
molecule = "CCc1c(CC2CCN(CC(=O)O)CC2)cccc1-c1nsc(-c2ccc(OC(C)C)c(Cl)c2)n1 [Example 105, trifluoroacetate]"
testvalue = "< 100 nM"


###

# targetOrSystem: human Endothelial Differentiation Gene 1 (EDG1), S1P1 receptor (Homo sapiens)
# Construct: TEV protease site; Gal4-VP16 transcription factor; expressed in transfected cells; host or cells: EDG1-bla/U2OS (Tango GPCR-bla U2OS parental cell line)
# procedureSummary: S1P1 Assay (Tango EDG1-bla/U2OS beta-lactamase reporter, agonist dose response)
# Assay type: cell-based
# appliedConditions: EDG1-bla/U2OS cells, blue/green emission ratio, 10 point dose response, free base or salt form; read-out: pEC50 (S1P1 assay) (converted)
attributeMeasured: EC50

[[record]]
compound = "CCc1c(CN2CCC(C(=O)O)C2)cccc1-c1cnc(-c2ccc(OC(C)C)c(C#N)c2)s1 (centres unmarked)"
attributemeasured = "EC50"
testvalue = "≤ 10 nM"

[[record]]
compound = "CCc1c(CCN2CC[C@H](C(=O)O)C2)cccc1-c1nsc(-c2ccc(CC(C)C)c(C#N)c2)n1"
attributemeasured = "EC50"
testvalue = "≤ 10 nM"

[[record]]
compound = "CCc1c(CCN2CCC[C@H](C(=O)O)C2)cccc1-c1nnc(-c2ccc(CC(C)C)c(C#N)c2)s1"
attributemeasured = "EC50"
testvalue = "< 1 nM"

[[record]]
compound = "COc1c(CCN2CCC(C(=O)O)CC2)cc(F)cc1-c1nnc(-c2ccc(OC(C)C)c(C(F)(F)F)c2)s1"
attributemeasured = "EC50"
testvalue = "< 100 nM"

[[record]]
compound = "CCc1c(CCN2C[C@H](O)C[C@H]2C(=O)O)cccc1-c1cnc(-c2ccc(OC(C)C)c(C#N)c2)s1"
attributemeasured = "EC50"
testvalue = "≤ 10 nM"

